Values compiled from patent US8551965B2.

assayInfo: Cytotoxicity to human embryonic lung cells
Type: cell-based
assaySetup: 50% cytotoxic concentration to human embryonic lung cells
The reader will find reported CC50 values listed item by item below.

Sample answers from the record:
compound	CC50
CCCCCOc1ccc(-c2cc3cn([C@H]4C[C@H](O)[C@@H](CO)O4)c(=O)nc3o2)cc1	> 200 µM
CCCCCCCCCCc1cc2cn([C@H]3C[C@H](O)[C@@H](CO)O3)c(=O)nc2o1 [Ex2 WO 98/49177, reference compound]	> 50 µM
COc1ccc(-c2cc3cn([C@H]4C[C@H](O)[C@@H](CO)O4)c(=O)nc3o2)cc1	> 200 µM
CCCOc1ccc(-c2cc3cn([C@H]4C[C@H](O)[C@@H](CO)O4)c(=O)nc3o2)cc1	> 200 µM
CCCCCCOc1ccc(-c2cc3cn([C@H]4C[C@H](O)[C@@H](CO)O4)c(=O)nc3o2)cc1	> 200 µM
CCCCCCCOc1ccc(-c2cc3cn([C@H]4C[C@H](O)[C@@H](CO)O4)c(=O)nc3o2)cc1	> 200 µM

Return reported CC50; argument: "O=c1nc2oc(-c3ccc(Br)cc3)cc2cn1[C@H]1C[C@H](O)[C@@H](CO)O1"
96 µM

Return reported CC50; argument: "CCOc1ccc(-c2cc3cn([C@H]4C[C@H](O)[C@@H](CO)O4)c(=O)nc3o2)cc1"
> 200 µM

Return reported CC50; argument: "O=c1nc2oc(-c3ccc(Cl)cc3)cc2cn1[C@H]1C[C@H](O)[C@@H](CO)O1"
> 200 µM

Return reported CC50; argument: Nc1nc2c(ncn2COCCO)c(=O)[nH]1 [Acyclovir, reference compound]
> 200 µM
